TARGET ENTITY: AURKA (Aurora-AG-126-390) (Homo sapiens, UniProt O14965)
Construct: was titrated into Aurora-AG-126-390 protein solution (30 μM); extra N-terminal Gly from cloning (the 'G' of the construct name); 6xHis (read by me from reverse primer 4); made in house; host or cells: E. coli BL21 (DE3) with pUBS550, co-expressed with lambda phosphatase (pBAT4-λPP)
Sequence (O14965 126-390): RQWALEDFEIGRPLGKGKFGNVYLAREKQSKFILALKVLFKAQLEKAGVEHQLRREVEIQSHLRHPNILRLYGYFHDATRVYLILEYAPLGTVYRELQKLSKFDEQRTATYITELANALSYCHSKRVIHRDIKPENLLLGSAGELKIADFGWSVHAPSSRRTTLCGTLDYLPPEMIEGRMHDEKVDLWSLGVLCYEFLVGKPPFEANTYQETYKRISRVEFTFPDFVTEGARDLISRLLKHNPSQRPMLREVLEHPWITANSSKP
EXPERIMENTAL DETAILS: Isothermal titration calorimetry
Format: binding
STUDY CONDITIONS: 25 °C; read-out: Kd (ITC)
ENDPOINT NAME: Kd (µM)

- O=C(O)c1ccccc1NC(=O)c1cc(-c2ccccc2)nc2ccccc12: 10.6
